Overview of reported pest or weed control at 20 g/ha across a group of compounds:
system: STEME; assay: Pre-emergence herbicidal action against STEME; assay type: in vivo, Stellaria media; conditions: Stellaria media, 504 h, dosage 20 g/ha
A number alone suffices; assume %.

1. CCCn1nnnc1NC(=O)c1ccc(C(F)(F)F)c(C(=O)NC)c1Cl | 90

Next item in the queue.
Q: Please state recorded pest or weed control at 20 g/ha (tested on STEME) of CNC(=O)c1c(C(F)F)ccc(C(=O)Nc2nnnn2C)c1C
A: 90

* * *

test system: DIGSA; experiment: Pre-emergence herbicidal action against DIGSA; assay type: in vivo, Digitaria sanguinalis; conditions: dosage 20 g/ha
Overview of reported Pre-emergence action against DIGSA in % across a group of compounds:
# include the unit after the value

1. CCn1nnnc1NC(=O)c1ccc(C(F)(F)F)c(C(=O)NCC2CC2)c1C | 100%
2. CCn1nnnc1NC(=O)c1ccc(S(C)(=O)=O)c(C(=O)NC)c1Cl | 80%
3. COc1c(C(=O)Nc2nnc(C)o2)ccc(C(F)(F)F)c1C(=O)NC1CC1 | 90%
4. Cc1c(C(=O)Nc2nnnn2C)ccc(C(F)(F)F)c1C(=O)NCC1CCCO1 (stereo not drawn) | 80%
5. Cc1nnc(NC(=O)c2ccc(C(F)(F)F)c(C(=O)NCC3CC3)c2C2CC2)o1 | 90%

Q: Quick one: Pre-emergence action against DIGSA in % for CCCNC(=O)c1c(C(F)F)ccc(C(=O)Nc2nnc(C)o2)c1Cl ?
A: 100%

Q: Quick one: Pre-emergence action against DIGSA in % for CCn1nnnc1NC(=O)c1ccc(C(F)(F)F)c(C(=O)NC(C)C2CC2)c1Cl (stereo not drawn) ?
A: 100%

Q: Quick one: Pre-emergence action against DIGSA in % for CCn1nnnc1NC(=O)c1ccc(C(F)F)c(C(=O)NC)c1Br ?
A: 100%

Q: Quick one: Pre-emergence action against DIGSA in % for CCn1nnnc1NC(=O)c1ccc(Br)c(C(=O)NCC2CC2)c1Cl ?
A: 100%

Q: Quick one: Pre-emergence action against DIGSA in % for CNC(=O)c1c(C(F)F)ccc(C(=O)Nc2nnco2)c1SC ?
A: 90%

Q: Quick one: Pre-emergence action against DIGSA in % for Cc1nnc(NC(=O)c2ccc(Br)c(C(=O)NCC(F)(F)F)c2Cl)o1 ?
A: 90%

Q: Quick one: Pre-emergence action against DIGSA in % for CCNC(=O)c1c(C(F)(F)F)ccc(C(=O)Nc2nnco2)c1SC ?
A: 100%

Q: Quick one: Pre-emergence action against DIGSA in % for Cc1c(C(=O)Nc2nnnn2C)ccc(C(F)(F)F)c1C(=O)NCC(F)F ?
A: 100%

Q: Quick one: Pre-emergence action against DIGSA in % for CNC(=O)c1c(C(F)F)ccc(C(=O)Nc2nnco2)c1Cl ?
A: 100%

Q: Quick one: Pre-emergence action against DIGSA in % for CC(NC(=O)c1c(C(F)(F)F)ccc(C(=O)Nc2nnnn2C)c1Cl)C1CC1 (stereo not drawn) ?
A: 90%

Q: Quick one: Pre-emergence action against DIGSA in % for Cn1nnnc1NC(=O)c1ccc(C(F)F)c(C(=O)NCC(F)F)c1Br ?
A: 90%

Q: Quick one: Pre-emergence action against DIGSA in % for CCn1nnnc1NC(=O)c1ccc(C(F)(F)F)c(C(=O)NCC(F)(F)F)c1C ?
A: 90%

Q: Quick one: Pre-emergence action against DIGSA in % for Cc1nnc(NC(=O)c2ccc(C(F)F)c(C(=O)NC3CC3)c2C)o1 ?
A: 80%
